Test system: TNF-α-induced NF-κB activity
Protocol text: Inhibition of TNF-α-activated NF-κB, luciferase reporter assay in HEK293 cells
Format: cell-based, human
Setup conditions: Homo sapiens; TNF-α-induced NF-κB luciferase, HEK293; read-out: NF-κB assay IC50
As shown below, each of these molecules has a reported IC50 value.
Express the result in µM but write the number alone.

molecule="CC1=C(C)C(=O)OC([C@](C)(O)[C@]2(O)CC[C@@]3(O)C4C[C@H]5O[C@]56[C@@H](O)C=CC(=O)[C@]6(C)C4CC[C@]23C)C1 (stereo partly drawn) [Compound 3, 4β-hydroxywithanolide E]" unit_abbreviation=µM obs_value=0.04
molecule="CC1=C(C)C(=O)OC(C(C)(O)C2(O)CC(O)C3(O)C4CC(O)C5(O)CC=CC(=O)C5(C)C4CCC32C)C1 (stereo not drawn)" unit_abbreviation=µM obs_value=8.9

Here is the next item to consider.
Per the record, CC(=O)OC1C[C@H](O)CC2=CCC3C4CCC([C@@](C)(O)[C@H](O)C[C@@H]5COC(=O)[C@@]5(C)O)[C@@]4(C)CCC3[C@]21C (stereo partly drawn) has IC50 of 1.1
